# inhibition at 10 µM listing for each entry below
molecular target: human GPR84 receptor (Homo sapiens); construct: host or cells: HEK293, transient transfection; test: Gαi biosensor BRET assay in HEK293 cells (antagonism of ZQ-16); type: cell-based; conditions: HEK293, single concentration 10 μM (designated F)
Sequence (Q9NQS5 whole entry): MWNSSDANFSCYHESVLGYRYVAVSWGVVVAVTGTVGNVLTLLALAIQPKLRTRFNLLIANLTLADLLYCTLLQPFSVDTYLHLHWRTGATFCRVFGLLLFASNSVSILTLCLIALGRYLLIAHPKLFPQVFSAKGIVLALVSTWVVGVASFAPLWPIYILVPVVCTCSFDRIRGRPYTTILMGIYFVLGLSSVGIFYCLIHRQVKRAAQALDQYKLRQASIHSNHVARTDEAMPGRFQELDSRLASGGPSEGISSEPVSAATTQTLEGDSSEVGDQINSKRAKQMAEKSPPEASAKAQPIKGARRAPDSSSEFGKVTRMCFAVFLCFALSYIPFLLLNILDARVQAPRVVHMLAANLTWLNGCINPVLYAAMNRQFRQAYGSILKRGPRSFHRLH

Before answering, review these 6 worked examples.
Cc1c(-c2ccc(C#CCO)cc2)nnn1CC1CCCCO1 (stereo not drawn)    25 to 50%
Cc1cc(N2CC(N(C)S(C)(=O)=O)C2)ccc1-c1cn(CC2CCCCO2)nn1 (stereo not drawn)    ≤ 25%
CC1(C)COC(Cn2cnc(-c3ncc(C#CCN4CC(C)(C)C4)cc3OC3CC3)c2)OC1    > 75%
Cc1cc(N2CC(C)(C)C2)c(C)cc1-c1cn(CC2OCC(C)(C)CO2)nn1    > 75%
CN(C)c1cc(N2CC(C)(C(=O)O)C2)ccc1-c1cn(CC2OCC(C)(C)CO2)nn1    25 to 50%
C[S+]([O-])c1cc(C#CC2CC2)ccc1-c1cn(CC2CCCCO2)nn1 (stereo not drawn)    ≤ 25%

Prompt line: Write down inhibition at 10 µM measured for item Cn1ccc2c(C#CC3CC3)ccc(-c3cn(CC4CCCCO4)nn3)c21 (stereo not drawn)
Response line: ≤ 25%

Prompt line: Write down inhibition at 10 µM measured for item Cc1cc(C#CCO)cnc1-c1cn(C[C@H]2CCCCO2)nn1
Response line: 50 to 75%

Prompt line: Write down inhibition at 10 µM measured for item Cc1cc(N2CC(N(C)Cc3ccccc3)C2)ccc1-c1cn(CC2CCCCO2)nn1 (stereo not drawn)
Response line: ≤ 25%

Prompt line: Write down inhibition at 10 µM measured for item COc1ccc(-c2cn(CC3CCCCO3)nn2)c(C)c1 (stereo not drawn)
Response line: ≤ 25%

Prompt line: Write down inhibition at 10 µM measured for item Cc1cc(C#CCNC(=O)OC(C)(C)C)ccc1-c1cn(CC2CCCCO2)nn1 (stereo not drawn)
Response line: 50 to 75%

Prompt line: Write down inhibition at 10 µM measured for item CCc1cc(C#CCN(C)CC2CC2)cnc1-c1cn(CC2CCCCO2)nn1 (stereo not drawn)
Response line: > 75%
